# Experimental system: Protein arginine N-methyltransferase 6 (Homo sapiens)
# Sequence (Q96LA8 whole entry): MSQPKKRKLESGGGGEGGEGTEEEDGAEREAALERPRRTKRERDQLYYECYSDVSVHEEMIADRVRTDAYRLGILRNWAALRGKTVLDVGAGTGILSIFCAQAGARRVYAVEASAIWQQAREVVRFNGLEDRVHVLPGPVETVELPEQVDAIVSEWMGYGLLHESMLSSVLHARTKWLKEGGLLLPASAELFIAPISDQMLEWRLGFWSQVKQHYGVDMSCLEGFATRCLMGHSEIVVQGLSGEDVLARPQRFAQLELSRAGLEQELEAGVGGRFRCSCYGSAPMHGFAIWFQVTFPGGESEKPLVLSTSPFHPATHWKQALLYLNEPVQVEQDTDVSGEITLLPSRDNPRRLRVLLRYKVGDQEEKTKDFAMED
pIC50: −log10 of the molar value.

- Mol: "N#Cc1ccc(Nc2ncnc(Nc3ccc(C(=N)N)cc3)c2[N+](=O)[O-])cc1"
  pIC50: "< 4.00"

----------
# Experiment description: Cytotoxicity against human DLD1 cells by MTT assay
# Type: functional, cell-based
# Measurement parameters: DLD-1
pIC50: −log10 of the molar value.
We begin with a simple list: items and their reported pIC50.
Quantity kind: pIC50

- Mol: "O=C(Nc1ccc2c(O)cc(S(=O)(=O)O)cc2c1)Nc1ccc2c(O)cc(S(=O)(=O)O)cc2c1"
  Value prefix: "<"
  Val: 4.00
- Mol: "COc1cc(Nc2ncnc(Nc3ccc(C(=N)N)cc3)c2[N+](=O)[O-])cc(OC)c1OC"
  Value prefix: "="
  Val: 4.08
- Mol: "N=C(N)c1ccc(Nc2ncnc(Nc3ccc(S(N)(=O)=O)cc3)c2[N+](=O)[O-])cc1"
  Value prefix: "="
  Val: 5.07
- Mol: "N#Cc1ccc(Nc2ncnc(Nc3ccc(C(=N)N)cc3)c2[N+](=O)[O-])cc1"
  Value prefix: "="
  Val: 5.36

Entry source: ChEMBL document CHEMBL3632463
